All values here come from patent US20120277142A1.

# experimental_target: T1, TNF-α (UniProt P01375 77-233, limits assumed)
# T1 construct: also called tumor necrosis factor; ligand
# T1 sequence (P01375 77-233 limits assumed): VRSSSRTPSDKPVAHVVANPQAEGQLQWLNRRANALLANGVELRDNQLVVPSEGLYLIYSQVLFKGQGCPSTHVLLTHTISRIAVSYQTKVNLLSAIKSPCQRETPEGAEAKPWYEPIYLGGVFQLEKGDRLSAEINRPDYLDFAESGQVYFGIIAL
# measurement_protocol: competition ELISA: sample vs plate-bound TNFRI190 for TNF-α, from IC50, relative to wild-type TNFRI126
# Experimental: Each well was washed three times with 300 μL of washing buffer (0.05% Tween-20, PBS, pH 7.4) and incubated at room temperature for 2 hours with 300 μL of a blocking buffer (5% skim milk, PBS, pH 7.4). Then, each well was washed as mentioned above. […] Affinity of Met-TNFRI and Met-TNFRI mutants for TNF-α was determined by measuring an absorbance change with concentration and evaluating IC₅₀ value by measuring an absorbance change with concentration.
reported_property: Affinity (%)

- binder: "TNFRI126-A7 (receptor, Met-TNFRI126 mutant made in E. coli) MDSVCPQGKYIHPQNNSICCTKCHKGTYLYNDCPGPGQDTDCRECESGSFTAPENFLPACLSCSKCRKEMGQVEISSCTVDRDTVCGCRKNQYRHYWSENLFQCFNCSLCLNGTVHLSCQEKQNTVC"
  reported_property: "Affinity (%)"
  measured_number: 600
- binder: "TNFRI126-A10 (receptor, Met-TNFRI126 mutant made in E. coli) MDSVCPQGKYIHPQNNSICCTKCHKGTYLYNDCPGPGQDTDCRECESGSFTAWENFLPACLSCSKCRKEMGQVEISSCTVDRDTVCGCRKNQYRHYWSENLFQCFNCSLCLNGTVHLSCQEKQNTVC"
  reported_property: "Affinity (%)"
  measured_number: 800
